Tested on: ACHN renal
Assay: NCI-60 one-dose screen, 48 h (100 = growth as untreated, 0 = no growth, -100 = all killed)
Details: 10 µM unless noted
This is part of a sample that, as a whole, favours compounds with a hit. Of some 83,000 tested, about 20% had one in any assay.
RECORDED_METRIC: growth (%)

[[record]]
structure_notation = "CCSc1sc(-c2ccc(C)cc2)nc1[P+](c1ccccc1)(c1ccccc1)c1ccccc1"
u = "%"
test_result = -44.8

[[record]]
structure_notation = "C=C(C)[C@@H]1CC[C@]2(C(=O)N3CCCNCC3)CC[C@]3(C)[C@H](CC[C@@H]4[C@@]5(C)CCC(=O)C(C)(C)[C@@H]5CC[C@]43C)[C@@H]12"
u = "%"
test_result = 105

[[record]]
structure_notation = "C[C@H]1[C@H]2C3=CC[C@@H]4[C@@]5(C)C/C(=C/c6ccco6)C(=O)C(C)(C)[C@@H]5CC[C@@]4(C)[C@]3(C)CC[C@@]2(C(=O)N2CCOCC2)CC[C@@H]1C"
u = "%"
test_result = 53.7

